- test description: NCI Yeast Anticancer Drug Screen. Data for the bub3 strain (AID 167)
- test settings: S. cerevisiae bub3 mutant strain, stronger effect = higher value; at 50.0 µM unless noted
The panel holds about 79,000 compounds, 15% with a hit somewhere; the sample as a whole holds those more often.
growth inhibition values, listed per item

>  <compound>
O=C(Nc1ccc([N+](=O)[O-])cc1C(=O)O)c1ccc([N+](=O)[O-])cc1

>  <unit text>
%

>  <growth inhibition>
-22.3

$$$$
>  <compound>
O=c1ccc(-c2ccc(-n3ccnc3)cc2)nn1CCO

>  <unit text>
%

>  <growth inhibition>
-38

$$$$
>  <compound>
Cc1cc(Cl)ccc1NC(=O)C(=O)Cc1ccc([N+](=O)[O-])c([N+](=O)[O-])c1CC(=O)C(=O)Nc1ccc(Cl)cc1C

>  <unit text>
%

>  <growth inhibition>
18.6

$$$$
>  <compound>
Cc1ccc(S(=O)(=O)CBr)cc1

>  <unit text>
%

>  <growth inhibition>
4.6

$$$$
>  <compound>
O=C(O)CCCCC1CCCCC1

>  <unit text>
%

>  <growth inhibition>
33.6

$$$$
>  <compound>
O=C1C(Br)=C[C@H]2C3C=CC(Br)(C3=O)[C@@H]12 (stereo partly specified)

>  <unit text>
%

>  <growth inhibition>
15.6

$$$$
>  <compound>
CCOc1ccc(N=Nc2c(N)nc(N)[nH]c2=O)cc1

>  <unit text>
%

>  <growth inhibition>
-1.25

$$$$
>  <compound>
O=C(O)c1ccccc1-c1ccccc1

>  <unit text>
%

>  <growth inhibition>
-15.3

$$$$
>  <compound>
O=C(Nc1ccc(Cl)cc1)NC1OC(=O)C(Cl)=C1Cl (stereo unspecified)

>  <unit text>
%

>  <growth inhibition>
3.5

$$$$
>  <compound>
O=C1OC(OC2CCCCC2)(c2ccccc2)c2ccccc21 (stereo unspecified)

>  <unit text>
%

>  <growth inhibition>
-1.65

$$$$
>  <compound>
CCCOc1cc2c(cc1C(C)c1ccc(OC)c(C)c1)OCO2 (stereo unspecified)

>  <unit text>
%

>  <growth inhibition>
4.55

$$$$
